# system.under.test: phosphodiesterase 4
# procedure.details: Phosphodiesterase 4 inhibition, SPA with enzyme preparation from human PMNL
# experimental.conditions: cytosolic PDE4 from human PMNL, 0.5 μM [3H]-cAMP, 37° C., 30 minutes; read-out: PDE 4 inhibition IC50
pIC50: −log10 of the molar value.
Reported pIC50 values for the following compounds.

smiles.notation: O=C(Nc1c(Cl)c[n+]([O-])cc1Cl)C(=O)c1cn(Cc2ccc(F)cc2)c2ncccc12
pIC50: 8.10

smiles.notation: O=C(Nc1c(Cl)cncc1Cl)C(=O)c1cn(Cc2ccc(F)cc2)c2c1ccc[n+]2[O-]
pIC50: 7.28

smiles.notation: O=C(Nc1c(Cl)cccc1Cl)C(=O)c1cn(Cc2ccccc2Cl)c2c1ccc[n+]2[O-]
pIC50: 7.32

smiles.notation: O=C(Nc1c(Cl)c[n+]([O-])cc1Cl)C(=O)c1cn(Cc2ccc(F)cc2)c2c1ccc[n+]2[O-]
pIC50: 6.12
